assay: melting temperature; fluorescence melt of hairpins on a sequencing array, two-state fit, raised by 9.35 °C to match UV melts; settings: sodium 0.088 M
OBSERVED_PROPERTY: Tm (°C)
State the answer as a number, implicitly in °C.

Before answering, review these 2 worked examples.
[[record]]
ordered_residues = "GCTTTTGAAAAAAAGC ((((((....))))))"
unit_label = "°C"
value = 50.4

[[record]]
ordered_residues = "GATCAGTCAGCTGATC ((((((....))))))"
unit_label = "°C"
value = 51.3


GGGCCAGGAAACTGACCC (((.(((....))).))) has a reported Tm of 50.4
